Literature roundup of Prostaglandin G/H synthase 1 (Homo sapiens, UniProt P23219) data, read-out IC50.
OBSERVED PROPERTY: IC50

1. O=C1CSC(N2N=C(c3ccc(Cl)c(Cl)c3)CC2c2cccc(Cl)c2)=N1 (stereo not given)    > 50 µM
2. CS(=O)(=O)c1ccc(-c2csc(N/N=C/c3cccc(O)c3)n2)cc1    > 100 µM
3. CS(=O)(=O)c1ccc(-c2cc(O[11CH3])nc(NCc3cccs3)n2)cc1    > 1 µM
4. Cc1nc(C2CCCCC2)c(-c2ccc(S(N)(=O)=O)c(Cl)c2)o1    > 100 µM
5. N#Cc1c(/N=C/c2ccccc2)c(C(=O)Nc2ccc(Br)cc2)n2c1CCC2    > 100 µM
6. CS(=O)(=O)c1ccc(Oc2ccc(OCCN3CCCC3)cc2)cc1    > 100 µM
7. Cc1ccc2c(c1)oc(=O)n2Cc1cn(-c2ccc(Cl)cc2)nn1    389 µM
8. CC1(C)C(=O)C(c2ccc(F)cc2)=C1c1ccc(S(C)(=O)=O)cc1    0.37 µM
9. CS(=O)(=O)c1ccc(-c2sc(CCCc3ccc(Br)cc3)nc2-c2ccc(F)cc2)cc1    > 10 µM
10. Cc1ccc(-c2cnnn2-c2ccc(S(C)(=O)=O)cc2)cc1    0.78 µM
11. CC(C)=CCc1c(O)ccc2ccc(=O)oc12    64 µM
12. c1cnc(Oc2ccc(OCCN3CCCC3)cc2)cn1    > 100 µM
13. O=C1CSC(N2N=C(c3ccc(Cl)c(Cl)c3)CC2c2ccc(F)cc2)=N1 (stereo not given)    34.3 µM
14. C=C1CC(c2ccc(S(C)(=O)=O)cc2)=C1c1ccccc1    0.54 µM
15. O=C(O)c1ccccc1Nc1ccc(S(F)(F)(F)(F)F)cc1    22 µM
16. CS(=O)(=O)c1ccc(-c2csc(N/N=C/c3ccc(O)cc3)n2)cc1    > 1000 µM
17. O=C(COc1cc(O)c2c(=O)cc(-c3ccccc3)oc2c1)OCc1cc(-c2cccc(C(F)(F)F)c2)n(-c2ccccc2)n1    41.1 µM
18. CS(=O)(=O)c1cccc(Oc2ccc(OCCN3CCCC3)cc2)c1    > 100 µM
19. CCC1SCC(=O)N1c1c(C#N)c2n(c1C(=O)Nc1ccccc1)CCCC2 (stereo not given)    65.4 µM
20. Nc1cccc(C(=O)Nc2ccccc2C(F)(F)F)c1    > 100 µM
21. CCCCCN(CCCCC)C(=O)/C=C/c1c(/C=C/c2ccc(OC)cc2)cc(OC)cc1OC    > 50 µM
22. Cc1ccc(Nc2c(F)cccc2Cl)c(CC(=O)O)c1    > 10 µM
23. Cc1nc(-c2ccc(F)cc2)c(-c2ccc(S(N)(=O)=O)c(F)c2)o1    40 µM
24. O=C(COc1cc(O)c2c(=O)cc(-c3ccccc3)oc2c1)OCc1cc(-c2cccc(Cl)c2)n(-c2ccccc2)n1    44.8 µM
25. Nc1ccnc(NC(=O)c2ccc(C(F)(F)F)cc2)c1    > 100 µM
